- assayedTarget: AF647-p53 (p53-SNAP labeled with AF647) (human, UniProt P04637 1-393)
- Sequence (P04637 whole entry): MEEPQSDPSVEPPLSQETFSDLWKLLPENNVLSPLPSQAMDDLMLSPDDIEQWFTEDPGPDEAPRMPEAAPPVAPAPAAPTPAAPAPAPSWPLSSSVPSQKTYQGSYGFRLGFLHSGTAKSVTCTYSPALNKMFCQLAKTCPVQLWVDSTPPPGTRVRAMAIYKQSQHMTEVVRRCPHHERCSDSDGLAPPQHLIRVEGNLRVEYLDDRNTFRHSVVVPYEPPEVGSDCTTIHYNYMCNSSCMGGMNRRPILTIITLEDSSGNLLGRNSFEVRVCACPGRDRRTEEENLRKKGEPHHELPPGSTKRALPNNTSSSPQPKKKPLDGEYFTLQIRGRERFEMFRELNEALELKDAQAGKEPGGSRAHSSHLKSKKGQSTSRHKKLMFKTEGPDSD
- measurementDescription: single-molecule TIRF; apparent upper limit (<=), koff 1.0 s-1, kon(obs) 0.0188 s-1; EMSA: 25 mM HEPES pH 7.9, 50 mM KCl, 2.5 mM MgCl2, 1 mM EDTA, 10% glycerol, 0.1% NP-40, 1 mM DTT, 0.05 mg/mL BSA, room temp 30 min; TIRF: 25 mM Tris pH 7.9, 50
- statedConditions: protein: recombinant; tags: N-terminal His; C-terminal SNAP tag with AlexaFluor647; chain copies: 4; label: 5' biotin on forward strand; 5' AF647 on reverse strand; 5' overhang 24 nt and 3' overhang 1 nt on forward strand as printed
pKd: −log10 of the molar value.

binder	pKd
mutant half site DNA (single molecule) (dsDNA) DNA 1: CGCGTTCATGGTAGAGTCGTGGACTAGAGCGAACATGTCTTTCAAAGGCGGCGTCG DNA 2: GACGCCGCCTTTGAAAGACATGTTCGCTCTA	> 7.89
